Taken from patent US20230287125A1.

assayedSystem: T1, human PD-L1-his tag protein (human, UniProt Q9NZQ7 19-238)
T1 construct: also called human PD-L1-His protein; recombinant PD-L1 protein; not shown: his tag
T1 sequence (Q9NZQ7 19-238 limits assumed): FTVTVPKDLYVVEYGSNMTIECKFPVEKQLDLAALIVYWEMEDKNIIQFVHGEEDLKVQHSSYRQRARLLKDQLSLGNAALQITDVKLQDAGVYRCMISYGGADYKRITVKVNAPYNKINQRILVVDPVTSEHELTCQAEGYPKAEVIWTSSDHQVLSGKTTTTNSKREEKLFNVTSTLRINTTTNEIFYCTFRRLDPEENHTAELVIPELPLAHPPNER
experimentalProtocol: SPR (Biacore), affinity ranking, PDL1-His
Hi there, I'd appreciate the recorded koff for every entry that follows.
Reply with the number and its unit after it.

Hu89C10H8-10 (antibody, V domains shown, humanized) VH: EVQLVESGGGLVKPGGSLRLSCAASGFTFSNYWMTWVRQAPGKGLEWVASITNTGSSTFYPDSVKGRFTISRDNAKNSLYLQMNSLRAEDTAVYYCTRDTTIAPFDYWGQGTMVTVSS VL: DIQMTQSPSSLSASVGDRVTITCKASQNLNEYLNWYQQKPGKAPKRLIYKTNTLQAGIPSRFSGSGSGIDYTLTISSLQPEDFATYYCSQYNSGNTFGQGTKLEIK    8.99e-05 s⁻¹
Hu89C10H8-3 (antibody, V domains shown, humanized) VH: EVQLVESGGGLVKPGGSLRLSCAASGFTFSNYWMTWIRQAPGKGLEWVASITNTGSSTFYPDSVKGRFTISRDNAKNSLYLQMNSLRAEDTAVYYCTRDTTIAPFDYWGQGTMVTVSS VL: DIQMTQSPSSLSASVGDRVTITCKASQNLNEYLNWYQQKPGKAPKRLIYKTNTLQAGVPSRFSGSGSGTDYTLTISSLQPEDFATYYCSQYNSGNTFGQGTKLEIK    5.79e-05 s⁻¹
Hu67F3G7-20 (antibody, V domains shown, humanized) VH: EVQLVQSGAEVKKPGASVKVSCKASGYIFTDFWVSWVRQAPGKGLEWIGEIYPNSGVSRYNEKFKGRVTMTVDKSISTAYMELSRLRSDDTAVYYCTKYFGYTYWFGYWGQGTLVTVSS VL: DTVLTQSPSLSASVGDRVTITCRASKSVSTYMHWYQQKPGKQPKLLIYSASHLESGVPSRFSGSGSGTDFTLTISSLQPEDFATYYCQQSNELPVTFGGGTKVEIK    9.36e-05 s⁻¹
Hu67F3G7-18 (antibody, V domains shown, humanized) VH: EVQLVQSGAEVKKPGASVKVSCKASGYIFTDFWVSWVRQAPGQGLEWIGEIYPNSGVSRYNEKFKGRVTMTVDKSISTAYMELSRLRSDDTAVYYCTKYFGYTYWFGYWGQGTLVTVSS VL: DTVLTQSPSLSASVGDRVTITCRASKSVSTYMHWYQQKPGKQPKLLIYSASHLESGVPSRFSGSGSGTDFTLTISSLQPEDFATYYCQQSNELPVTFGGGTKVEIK    9.51e-05 s⁻¹

Field: next binder
Query block: Recorded koff for Hu89C10H8-16 (antibody, V domains shown, humanized) VH: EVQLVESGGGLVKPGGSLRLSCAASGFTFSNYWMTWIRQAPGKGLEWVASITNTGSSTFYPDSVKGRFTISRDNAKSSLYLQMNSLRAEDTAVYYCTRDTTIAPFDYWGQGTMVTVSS VL: DIQMTQSPSSLSASVGDRVTITCKASQNLNEYLNWYQQKLGEAPKRLIYKTNTLQAGIPSRFSGSGSGIDYTLTISSLQPEDFATYFCSQYNSGNTFGQGTKLEIK , please?
Result block: 6.54e-05 s⁻¹
